Fold @ 10 uM values, listed per item
- assayed.system: aryl hydrocarbon receptor (AhR) (Mus musculus (Mouse))
- Sequence (P30561 10-805): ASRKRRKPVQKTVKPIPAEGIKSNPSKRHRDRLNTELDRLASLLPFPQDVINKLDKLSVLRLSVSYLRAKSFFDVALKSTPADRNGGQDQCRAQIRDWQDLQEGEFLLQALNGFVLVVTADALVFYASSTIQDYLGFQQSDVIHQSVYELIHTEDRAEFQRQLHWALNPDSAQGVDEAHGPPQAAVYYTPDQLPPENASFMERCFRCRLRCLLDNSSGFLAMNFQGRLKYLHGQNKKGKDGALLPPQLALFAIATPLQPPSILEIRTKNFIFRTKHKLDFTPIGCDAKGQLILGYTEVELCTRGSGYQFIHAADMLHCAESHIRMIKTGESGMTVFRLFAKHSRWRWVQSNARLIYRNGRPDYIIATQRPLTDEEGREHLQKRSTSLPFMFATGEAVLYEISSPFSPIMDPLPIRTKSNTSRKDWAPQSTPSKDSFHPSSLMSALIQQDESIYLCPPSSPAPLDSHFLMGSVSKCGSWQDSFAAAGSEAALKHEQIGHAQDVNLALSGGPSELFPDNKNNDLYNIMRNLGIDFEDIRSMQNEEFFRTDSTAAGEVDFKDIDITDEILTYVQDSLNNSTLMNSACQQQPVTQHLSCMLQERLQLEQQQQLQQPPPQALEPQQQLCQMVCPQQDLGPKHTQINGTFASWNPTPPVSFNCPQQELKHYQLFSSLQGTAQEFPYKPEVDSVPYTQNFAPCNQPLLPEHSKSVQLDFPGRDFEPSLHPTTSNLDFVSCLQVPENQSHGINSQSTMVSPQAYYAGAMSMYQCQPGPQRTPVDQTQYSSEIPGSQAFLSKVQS
- Sequence (P53762 whole entry partner): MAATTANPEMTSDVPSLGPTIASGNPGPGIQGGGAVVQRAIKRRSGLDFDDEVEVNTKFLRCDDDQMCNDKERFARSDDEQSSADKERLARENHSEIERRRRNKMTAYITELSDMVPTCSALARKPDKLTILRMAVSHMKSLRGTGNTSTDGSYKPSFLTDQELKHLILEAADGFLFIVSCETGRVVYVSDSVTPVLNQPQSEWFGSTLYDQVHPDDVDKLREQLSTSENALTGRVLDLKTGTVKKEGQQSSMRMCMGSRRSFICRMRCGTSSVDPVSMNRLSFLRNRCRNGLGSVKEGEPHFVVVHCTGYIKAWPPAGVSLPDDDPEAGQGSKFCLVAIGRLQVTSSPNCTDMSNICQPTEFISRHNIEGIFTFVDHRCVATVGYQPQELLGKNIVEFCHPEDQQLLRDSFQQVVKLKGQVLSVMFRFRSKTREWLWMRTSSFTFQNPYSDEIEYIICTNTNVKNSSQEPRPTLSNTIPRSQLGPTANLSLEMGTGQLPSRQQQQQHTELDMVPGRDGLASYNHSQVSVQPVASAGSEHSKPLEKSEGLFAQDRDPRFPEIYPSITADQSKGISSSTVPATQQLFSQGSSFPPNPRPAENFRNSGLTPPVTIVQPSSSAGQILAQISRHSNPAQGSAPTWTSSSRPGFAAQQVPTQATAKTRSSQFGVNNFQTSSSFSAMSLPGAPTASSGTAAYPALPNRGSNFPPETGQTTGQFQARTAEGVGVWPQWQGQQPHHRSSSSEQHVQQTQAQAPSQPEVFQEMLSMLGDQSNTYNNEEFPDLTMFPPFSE
- protocol.details: AhR ligand screening: AhRE-luciferase reporter in transfected Hepa1 cells
- Assay type: cell-based
- measurement.context: fold change of luciferase expression at 10 uM test compound relative to vehicle (0.1% DMSO)
Note to self: number, then unit, no commentary.

# compound, Fold @ 10 uM
rows = [
    ("O=C(c1ccc(F)c(F)c1)n1c(-c2cccc3c2CCCC3)nc2cc(Cl)ccc21 [Compound 779]", "5 fold"),
    ("CN1CCN(C(=O)c2ccc3c(c2)nc(-c2cccc4ccccc24)n3Cc2ccc(F)c(F)c2)CC1 [Compound 1364]", "3 fold"),
    ("O=C(c1ccc2c(c1)nc(-c1cccc3ccccc13)n2S(=O)(=O)c1ccc(Cl)cc1)N1CCCCC1 [Compound 1366]", "10 fold"),
]

# next compound below
Input line: Which measured Fold @ 10 uM value corresponds to CN1CCN(C(=O)c2ccc3nc(-c4cccc5ccccc45)n(Cc4ccc(F)c(F)c4)c3c2)CC1 [Compound 1365] ?
Output line: 2 fold
